Assay: NCI Yeast Anticancer Drug Screen. Data for the sgs1 mgt1 strain (AID 161);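 also: 0% = growth of cultures given vehicle only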
Details: S. cerevisiae sgs1 mgt1 strain, at 50.0 µM, stronger effect = higher value
The panel holds about 79,000 compounds, 15% with a hit somewhere; the sample as a whole holds those more often.
Please enter label 1 where growth inhibition is greater than or equal to 10%, and label 0 where it is lower.

compound: CCCCCCSC#N
group-label: label 0

compound: CC1CN=C(N(C(=O)Nc2ccc(Cl)cc2)c2cccc(Cl)c2)S1 (stereo not drawn)
group-label: label 0

compound: Cc1nc2cc(C)c(C)cc2[nH]1
group-label: label 0

compound: Cc1ccc(N=C2C(=Nc3ccc(C)cc3)N(c3ccc(C)cc3)C(=S)N2C(=O)c2ccccc2)cc1
group-label: label 0

compound: CC(=O)c1cccc(NC(=O)Oc2ccc(Cl)cc2Cl)c1
group-label: label 0

compound: CCCCCCC(C)(C)NC(N)=O
group-label: label 0

compound: NCCNC(=O)Cc1cccs1
group-label: label 0

compound: COc1ccc(OC)c(NC(=O)SC(C)C)c1
group-label: label 0

compound: c1ccc2c(c1)ccc1cccc[n+]12
group-label: label 0

compound: COc1cc(CCNC2=CC(=O)c3cccnc3C2=O)ccc1O
group-label: label 1

compound: O=C(Cc1ccccc1C(=O)O)c1ccccc1
group-label: label 0

compound: CCOC1(c2ccccc2)c2ccccc2C(C)(C)c2ccccc21
group-label: label 1

compound: CSc1nnc2c3ccccc3ccn12
group-label: label 0

compound: O=C1C[CH]([Ge](=[O])[O][Ge](=[O])[CH]2CC(=O)NC(=O)N2)NC(=O)N1 (stereo not drawn)
group-label: label 1

compound: Cc1cc[n+](C(C)CCC(C)[n+]2ccc(C)cc2)cc1 (stereo not drawn)
group-label: label 1

compound: Clc1ccc(N2C(c3ccccc3)=N[C@@H](N3CCOCC3)[C@@H]2N2CCOCC2)cc1
group-label: label 0

compound: CSC(C(OC(C)=O)C(OC(C)=O)C(OC(C)=O)C(COC(C)=O)OC(C)=O)n1cnc2c(=S)nc[nH]c21 (stereo not drawn)
group-label: label 0

compound: O=[N+]([O-])/C(Cl)=C(/C(Cl)=C(Cl)Cl)N1CCOCC1
group-label: label 1

compound: CN(C)CC1CCCCC1O (stereo not drawn)
group-label: label 0

compound: COC(=O)Nc1cn2nc(C)sc2n1
group-label: label 0

compound: N=C1/C(=C/c2ccco2)C(=O)N=C2SC=NN12
group-label: label 1

compound: CCC(CC)C(O)CCCN(C)C (stereo not drawn)
group-label: label 1

compound: Cc1cccc(NC(=O)C(C)C)c1
group-label: label 1

compound: CCOC(C#CC(=O)C(C)C)OCC
group-label: label 0

compound: CCOC(OCC)C(C)(C)OC=O
group-label: label 0

compound: CC1=CC(=O)CC(C)(C)C1(O)/C=C/C(C)=C/C(=O)O (stereo not drawn)
group-label: label 0

compound: COc1cc(/C=C/C(=N\NC(=S)NN)c2sc(NNC(C)=O)nc2C)ccc1O
group-label: label 1

compound: C=CCSc1ccc(Cl)cc1[N+](=O)[O-]
group-label: label 0

compound: O=C(SCc1ccccc1)N(c1ccccc1)c1ccccc1
group-label: label 0

compound: COc1ccc2c(c1)CCN1CCc3ccccc3CC21 (stereo not drawn)
group-label: label 1

compound: O=C(O)C1Nc2ccccc2NC1=O (stereo not drawn)
group-label: label 0

compound: O=C(O)COCC(=O)N(CCOCCN(Cc1ccccc1)C(=O)COCC(=O)O)Cc1ccccc1
group-label: label 0

compound: COc1ccc(-c2nnc3n(C)c4ccccc4n3c2=O)cc1
group-label: label 1

compound: COC(=O)CC1(C(=O)OC)Nc2ccccc2C(=O)O1 (stereo not drawn)
group-label: label 1

compound: Clc1cccc(Cl)c1C(Nc1ncccn1)Nc1ncccn1
group-label: label 1

compound: O=C(Nc1ccccc1F)c1c(O)nc2sccn2c1=O
group-label: label 1

compound: CCCCCCCCCCCCCCCCOc1ccccn1
group-label: label 0

compound: Nc1ccccc1NC1CCN(Cc2ccccc2)CC1
group-label: label 1

compound: Cc1cc(N(CCC#N)CCC#N)ccc1/C=C1N=C(/C=C/c2ccccc2)OC(=O)N\1
group-label: label 0

compound: N.N.N.N.N.O=C([O-])c1nn[n-]n1.[Cl-].[Co+3]
group-label: label 0

compound: C[N+](C)(C)c1ccc(C(=O)[O-])cc1
group-label: label 0
